Listed molecules paired with reported GI50
system: NCI-H226 lung; test: NCI tumour cell line growth inhibition, 48 h
measured quantity: GI50

> print(dat)
                                    molecule      value
 1  CC(=O)Nc1ccc(-c2csc(Nc3cccc(-c4csc(C)n4)c3)n2)cc1    4.92 µM
 2  CC1(C)OC2C(CO[Si](C)(C)C(C)(C)C)OC(n3c(I)c(C#C[Si](C)(C)C)c(=O)[nH]c3=O)C2O1 (centres undefined)      17 µM
 3  C[C@@H]1C[C@@H]([C@@H](CC2CC(=O)NC(=O)C2)OC(=O)CC(=O)c2ccccc2)C(=O)[C@@H](C)C1   0.686 µM
 4  COC(=O)[C@]12CC[C@@H](C)[C@H](C)[C@@H]1C1=CC[C@@H]3[C@@]4(C)C[C@@H](O)[C@H](O)[C@@](C)(CO)C4=CC[C@@]3(C)[C@]1(C)CC2    20.1 µM
 5  Cc1cc(N[C@@H]2CCC[C@H](Nc3ccnc4cc(Cl)ccc34)C2)nc(N2CCCCCC2)n1    2.42 µM
 6   CCOC(=O)Nc1cc2c(c(N)n1)N=C(c1ccccc1)CO2    4.16 µM
 7  Nc1ncn([C@@H]2O[C@H](CO)[C@@H](O)[C@H]2O)c(=O)n1    1.39 µM
 8  Clc1cc2c(c(CSc3nc4ccccc4n4cccc34)c1)OCOC2    14.3 µM
 9  C[n+]1c(/C=C/c2c(O)ccc3ccccc23)ccc2ccccc21    5.65 µM
10  O=C(NC[C@H](O)CN1CCc2ccccc2C1)c1cc(NC2COC2)ncn1    9.88 µM
11  N#Cc1nn(-c2cc(=O)[nH]c3ccc(Cl)cc23)c(N)c1C#N   > 100 µM
12  CC(C)(/C=C(\C#N)C(=O)N1CCC[C@@H](n2nc(-c3ccc(Oc4ccccc4)cc3F)c3c(N)ncnc32)C1)N1CCN(C2COC2)CC1     4.3 µM
13  N=c1c2c(-c3ccccc3)c(-c3ccccc3)n(Cc3ccccc3)c2ncn1C1CCC(O)CC1 (centres undefined)   0.517 µM
14  COc1ccc(-c2ccc(=O)oc2C#Cc2cc(OC)c(OC)c(OC)c2)cc1O    1.42 µM
15  O=c1oc2ccc(-c3ccc(F)cc3F)cc2c(=O)n1-c1cccc(C(F)(F)F)c1    1.43 µM
16  CN(C)CC[C@H](CSc1ccccc1)Nc1ccc(S(=O)(=O)NC(=O)c2ccc(N3CCN(Cc4ccccc4-c4ccc(Cl)cc4)CC3)cc2)cc1[N+](=O)[O-]    4.59 µM
17   NC(=O)c1c(NC(=O)c2ccccc2)sc2c1CCC(=O)C2     2.2 µM
18  COc1cc(Cl)cc(-c2nn(-c3cccc(NC(=O)c4ccc(N5CCOCC5)c(C(F)(F)F)c4)c3)cc2-c2ccncc2)c1    93.4 µM
19  CN(C)C1CCN(C(=O)c2ccc(NC(=O)Nc3ccc(-c4nc(N5CCOCC5)c5cccn5n4)cc3)cc2)CC1  0.0435 µM

====

test system: SF-539 CNS; assay: NCI tumour cell line growth inhibition, 48 h; in the data active = GI50 below about 0.43 µM; inactive = the rest
Outcome codes: t (active), f (inactive)

> print(dat)
                                    compound  class.label
 1  CN1CCN(c2ccc(Nc3cc(-c4cccc(-n5ccc6cc(C7CC7)cc(F)c6c5=O)c4CO)cn(C)c3=O)nc2)CC1            f
 2     COc1ccc2nc3ccccc3c(NCc3ccc(F)cc3)c2c1            f
 3  COc1cc(Cl)cc(-c2nn(-c3cccc(NC(=O)c4ccc(N5CCOCC5)c(C(F)(F)F)c4)c3)cc2-c2ccncc2)c1            f
 4  CCn1c(O)c(/C=N/NC(=O)C(C)c2ccc(CC(C)C)cc2)sc1=S (stereo not given)            t
 5  COC(=O)c1c2c(c(C)[n+]([O-])c1C)C(=O)C=C(NCc1ccc(F)cc1)C2=O            f
 6          S=c1[nH]c(=S)c2cc3ccccc3nc2[nH]1            f
 7  O=C(/C=C/c1ccc[nH]1)c1ccc(-n2ccc(C(F)(F)F)n2)cc1            f
 8  CNCCOC(=O)/C=C1\CC[C@H]2[C@@H]([C@@H](O)C(=O)[C@@H]3[C@]2(C)CC[C@H](O)[C@]3(C)C(=O)OC)[C@H]1C            t
 9  CCCC(=O)Nc1cn(COC)c(C(=O)N2C[C@@H]3C[C@]34C2=CC(=O)c2[nH]cc(C)c24)n1            f
10  N=c1c2c(-c3ccccc3)c(-c3ccccc3)n(Cc3ccccc3)c2ncn1C1CCC(O)CC1 (stereo not given)            f
11  COC(=O)c1ccc2c(c1)C(=O)c1c-2n(CCCN=[N+]=[N-])c(=O)c2cc(OC)c(OC)cc12            f
12  COc1cnc2c(c1)C(=O)c1c-2n(CCCNC2=NCCS2)c(=O)c2cc([N+](=O)[O-])ccc12            t
13  C[n+]1c(/C=C/c2c(O)ccc3ccccc23)ccc2ccccc21            f
14  Cc1nnc(Nc2ccc(NC(=O)Nc3ccc(Cl)cc3)cc2)c2ccccc12            f
15                      NC1CCN(Cc2ccccc2)CC1            f
16  C[C@@H]1C[C@@H]([C@@H](CC2CC(=O)NC(=O)C2)OC(=O)CC(=O)c2ccccc2)C(=O)[C@@H](C)C1            f
17  COc1ccc(-c2ccc(=O)oc2C#Cc2cc(OC)c(OC)c(OC)c2)cc1O            t
18  CC1(C)OC2C(CO[Si](C)(C)C(C)(C)C)OC(n3c(I)c(C#C[Si](C)(C)C)c(=O)[nH]c3=O)C2O1 (stereo not given)            f
19  CC(NCCC(c1ccccc1)c1ccccc1)c1ccccc1 (stereo not given)            f
20  COc1cc(N(CCC#N)CCC#N)ccc1/C(N=Nc1ccc(Cl)cc1)=N/NC(=O)c1cc(Br)ccc1O            f
